Kindly supply the reported isoTOP-ABPP reactivity ratio at lysine Q9NZ08_K685 values for the records listed here.
- ASSAY_TARGET: ERAP1 Endoplasmic reticulum aminopeptidase 1 (Homo sapiens, UniProt Q9NZ08)
- Construct: endogenous in cells; host or cells: MDA-MB-231 lysate
- Sequence (Q9NZ08 whole entry): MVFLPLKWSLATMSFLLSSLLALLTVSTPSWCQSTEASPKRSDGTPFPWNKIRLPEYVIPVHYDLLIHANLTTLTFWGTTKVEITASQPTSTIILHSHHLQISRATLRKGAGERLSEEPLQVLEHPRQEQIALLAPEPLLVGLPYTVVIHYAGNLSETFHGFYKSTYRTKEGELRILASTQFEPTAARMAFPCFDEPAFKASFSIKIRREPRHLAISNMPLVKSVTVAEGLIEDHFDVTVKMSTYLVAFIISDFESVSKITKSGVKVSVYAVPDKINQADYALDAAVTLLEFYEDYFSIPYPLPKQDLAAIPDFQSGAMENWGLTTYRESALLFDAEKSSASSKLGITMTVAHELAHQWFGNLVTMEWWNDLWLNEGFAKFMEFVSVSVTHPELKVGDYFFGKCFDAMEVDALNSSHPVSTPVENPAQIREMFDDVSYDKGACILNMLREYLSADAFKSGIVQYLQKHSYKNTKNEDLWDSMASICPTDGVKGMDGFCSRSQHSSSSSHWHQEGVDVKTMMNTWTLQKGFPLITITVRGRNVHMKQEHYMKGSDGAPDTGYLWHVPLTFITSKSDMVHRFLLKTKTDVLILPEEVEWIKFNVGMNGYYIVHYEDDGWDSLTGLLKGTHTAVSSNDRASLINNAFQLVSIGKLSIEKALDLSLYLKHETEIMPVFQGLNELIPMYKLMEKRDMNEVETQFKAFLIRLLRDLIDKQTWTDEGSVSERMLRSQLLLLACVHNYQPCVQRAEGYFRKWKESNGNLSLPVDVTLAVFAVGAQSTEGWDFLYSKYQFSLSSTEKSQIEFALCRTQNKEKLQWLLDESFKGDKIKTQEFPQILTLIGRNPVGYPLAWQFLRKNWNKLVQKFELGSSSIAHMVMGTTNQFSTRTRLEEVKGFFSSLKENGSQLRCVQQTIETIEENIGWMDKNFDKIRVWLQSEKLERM
- METHOD_DESCRIPTION: competitive isoTOP-ABPP
- Assay type: binding
- CONDITION_DESCRIPTION: 50 uM, 231 sol, in vitro
A bare number is all that is needed in reply.

Entry under test: "CCn1cc(C(=O)Oc2c(F)c(F)c(F)c(F)c2F)c(=O)c2ccc(C)nc21" . Its isoTOP-ABPP reactivity ratio at lysine Q9NZ08_K685 was 1.4

Entry under test: "O=C(Oc1c(F)c(F)c(F)c(F)c1F)C1CCN(C(=O)OCc2ccccc2)CC1" . Its isoTOP-ABPP reactivity ratio at lysine Q9NZ08_K685 was 1.6

Entry under test: "O=C(Oc1c(F)c(F)c(F)c(F)c1F)c1ccc2ccccc2n1" . Its isoTOP-ABPP reactivity ratio at lysine Q9NZ08_K685 was 1.9

Entry under test: "O=C(Oc1ccc([N+](=O)[O-])cc1[N+](=O)[O-])c1cc(C(F)(F)F)cc(C(F)(F)F)c1" . Its isoTOP-ABPP reactivity ratio at lysine Q9NZ08_K685 was 1.6

Entry under test: "O=C(CCc1coc2cc(F)ccc2c1=O)Oc1c(F)c(F)c(F)c(F)c1F" . Its isoTOP-ABPP reactivity ratio at lysine Q9NZ08_K685 was 1.2

Entry under test: O=C(Oc1ccc([N+](=O)[O-])cc1[N+](=O)[O-])C(c1ccccc1)c1ccccc1 [fragment 30, 2,4-Dinitrophenyl 2,2-diphenylacetate] . Its isoTOP-ABPP reactivity ratio at lysine Q9NZ08_K685 was 1.2

Entry under test: "O=C(CCc1cn(-c2ccccc2)nc1-c1ccccc1)Oc1ccc([N+](=O)[O-])cc1[N+](=O)[O-]" . Its isoTOP-ABPP reactivity ratio at lysine Q9NZ08_K685 was 1.0

Entry under test: "Cn1cc(CC(=O)Oc2ccc([N+](=O)[O-])cc2[N+](=O)[O-])c2ccccc21" . Its isoTOP-ABPP reactivity ratio at lysine Q9NZ08_K685 was 2.8

Entry under test: "O=C(CN1C(=O)c2ccccc2C1=O)Oc1c(F)c(F)c(F)c(F)c1F" . Its isoTOP-ABPP reactivity ratio at lysine Q9NZ08_K685 was 5.7

Entry under test: "COc1cc(CCC(=O)Oc2ccc([N+](=O)[O-])cc2[N+](=O)[O-])cc(OC)c1OC" . Its isoTOP-ABPP reactivity ratio at lysine Q9NZ08_K685 was 1.0

###

- ASSAY_TARGET: SIN3A Paired amphipathic helix protein Sin3a (Homo sapiens, UniProt Q96ST3)
- Construct: isoTOP-ABPP experiments performed in cell lysates (in vitro); endogenous in cells; host or cells: soluble proteome of human cancer cell lines (MDA-MB-231; Ramos and Jurkat also prepared)
- Sequence (Q96ST3 whole entry): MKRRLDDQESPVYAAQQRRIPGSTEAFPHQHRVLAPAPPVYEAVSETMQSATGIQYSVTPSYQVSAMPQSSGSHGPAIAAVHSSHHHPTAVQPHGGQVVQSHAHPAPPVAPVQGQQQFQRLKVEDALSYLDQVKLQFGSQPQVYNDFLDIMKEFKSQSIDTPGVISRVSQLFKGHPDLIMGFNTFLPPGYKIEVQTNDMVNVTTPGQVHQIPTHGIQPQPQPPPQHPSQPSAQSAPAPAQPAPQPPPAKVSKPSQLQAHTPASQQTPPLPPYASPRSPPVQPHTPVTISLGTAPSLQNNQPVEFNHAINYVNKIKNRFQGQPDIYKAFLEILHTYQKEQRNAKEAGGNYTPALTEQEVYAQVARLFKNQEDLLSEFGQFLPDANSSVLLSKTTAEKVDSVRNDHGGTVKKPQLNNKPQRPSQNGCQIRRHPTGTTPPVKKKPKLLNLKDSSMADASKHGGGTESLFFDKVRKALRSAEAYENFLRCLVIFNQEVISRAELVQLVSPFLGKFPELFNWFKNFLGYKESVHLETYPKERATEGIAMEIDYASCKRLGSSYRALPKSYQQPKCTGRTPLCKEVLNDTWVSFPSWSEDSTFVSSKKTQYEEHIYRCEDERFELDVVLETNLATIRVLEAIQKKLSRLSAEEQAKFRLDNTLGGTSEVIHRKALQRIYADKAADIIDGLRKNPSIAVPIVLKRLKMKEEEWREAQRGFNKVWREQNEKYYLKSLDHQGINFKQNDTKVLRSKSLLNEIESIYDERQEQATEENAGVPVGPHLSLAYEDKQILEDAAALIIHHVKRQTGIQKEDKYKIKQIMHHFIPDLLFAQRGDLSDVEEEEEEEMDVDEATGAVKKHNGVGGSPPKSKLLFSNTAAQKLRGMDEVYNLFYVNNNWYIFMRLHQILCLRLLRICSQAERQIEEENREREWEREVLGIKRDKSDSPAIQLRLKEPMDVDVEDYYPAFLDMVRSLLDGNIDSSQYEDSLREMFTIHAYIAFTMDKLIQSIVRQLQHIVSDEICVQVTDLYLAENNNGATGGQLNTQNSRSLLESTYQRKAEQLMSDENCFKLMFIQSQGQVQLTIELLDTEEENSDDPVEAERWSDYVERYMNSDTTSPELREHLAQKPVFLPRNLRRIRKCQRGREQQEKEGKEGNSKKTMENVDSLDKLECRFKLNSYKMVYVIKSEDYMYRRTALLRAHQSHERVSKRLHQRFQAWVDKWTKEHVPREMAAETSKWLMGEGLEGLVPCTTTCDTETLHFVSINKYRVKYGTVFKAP
- METHOD_DESCRIPTION: competitive isoTOP-ABPP
- Format: binding
- CONDITION_DESCRIPTION: 50 uM, in vitro, sol, 231
- Description: In vitro covalent fragment treatment for isoTOP-ABPP. All compounds were made up as solutions in DMSO (100×) and were used at a final concentration of 50 μM for activated esters and 100 μM for guanidinylating agents. […] R value calculation and processing. The ratios of light and heavy MS1 peaks for each unique peptide were quantified with a CIMAGE software using default parameters (3 MS1 acquisitions per peak and signal to noise threshold set to 2.5). […]
Kindly supply the reported isoTOP-ABPP ratio (R) at liganded lysine Q96ST3_K155 values for the records listed here.
A bare number is all that is needed in reply.

Entry under test: "O=C(Oc1ccc([N+](=O)[O-])cc1[N+](=O)[O-])C1CCN(C(=O)OCc2ccccc2)CC1" . Its isoTOP-ABPP ratio (R) at liganded lysine Q96ST3_K155 was 0.8

Entry under test: "O=C(Oc1ccc([N+](=O)[O-])cc1[N+](=O)[O-])c1ccccc1Nc1cccc(C(F)(F)F)c1" . Its isoTOP-ABPP ratio (R) at liganded lysine Q96ST3_K155 was 1.1

Entry under test: "O=C(CCc1coc2cc(F)ccc2c1=O)Oc1ccc([N+](=O)[O-])cc1[N+](=O)[O-]" . Its isoTOP-ABPP ratio (R) at liganded lysine Q96ST3_K155 was 1.4

Entry under test: CC(=O)Oc1ccc([N+](=O)[O-])cc1[N+](=O)[O-] [fragment 43, 2,4-Dinitrophenyl acetate] . Its isoTOP-ABPP ratio (R) at liganded lysine Q96ST3_K155 was 1.2

Entry under test: O=C(Oc1ccc([N+](=O)[O-])cc1[N+](=O)[O-])C(c1ccccc1)(c1ccccc1)c1ccccc1 [fragment 42, 2,4-Dinitrophenyl 2,2,2-triphenylacetate] . Its isoTOP-ABPP ratio (R) at liganded lysine Q96ST3_K155 was 0.9

Entry under test: O=C(Oc1ccc([N+](=O)[O-])cc1[N+](=O)[O-])c1ccc(Oc2ccccc2)cc1 [fragment 39, 2,4-Dinitrophenyl 4-phenoxybenzoate] . Its isoTOP-ABPP ratio (R) at liganded lysine Q96ST3_K155 was 1.0

Entry under test: "O=C(Oc1ccc([N+](=O)[O-])cc1[N+](=O)[O-])c1ccc(-c2ccccc2)cc1" . Its isoTOP-ABPP ratio (R) at liganded lysine Q96ST3_K155 was 1.1
